Each recorded value in this set is attributed to PubChem BioAssay (Tox21).

Target: Gonadotropin-releasing hormone receptor (Homo sapiens)
Test: Human gonadotropin-releasing hormone receptor (GnRHR) small molecule agonists, calcium flux assay in GnRHR-HEK293 cells (AID 1920063); further: on the % scale 0 is the no-effect control and ±100 the full control effect; nearly all actives have a fitted effect of over 35% in size
Settings: calcium flux fluorescence, agonist mode; series mostly up to 57.6 µM
The source made the active and inactive calls. The call rests on the fitted dose curve.
EXPERIMENTAL READOUT: activity change

Solved entries (count: 4):
C[C@@H]1C[C@H]2[C@@H]3CCC4=CC(=O)C=C[C@]4(C)[C@@]3(F)[C@@H](O)C[C@]2(C)[C@@]1(O)C(=O)COC(=O)c1ccncc1	inactive
CCCCOC(=O)c1ccccc1	inactive
C1CCOC1	inactive
Cc1ccc2c(Br)cc(Br)c(O)c2n1	inactive

Lab note: each molecule below needs its activity change filled in.
1. CCC(=O)c1ccc2c(c1)N(CCCN(C)C)c1ccccc1S2
2. Cc1ccc(NC(=O)c2ccc(CN3CCN(C)CC3)cc2)cc1Nc1nccc(-c2cccnc2)n1
3. CC(C(=O)O)c1ccc2c(c1)[nH]c1ccc(Cl)cc12 (stereo unspecified)
4. CSc1ccc(O)cc1C
5. C1CCC2(CCCCO2)OC1

[reply]
1: inactive; 2: inactive; 3: inactive; 4: inactive; 5: inactive

====

Test: p53 small molecule agonists, cell-based qHTS assay with rat liver microsomes: qHTS cell viability counter screen (AID 1963580); further: on the % scale 0 is the no-effect control and ±100 the full control effect; nearly all actives have a fitted effect of over 45% in size
Conditions: p53RE-bla HCT-116 + rat microsomes, ATP viability, 16 h; series mostly up to 66 µM
Records with an inconclusive call do not appear. Activity calls are given as the source filed them. The call rests on the fitted dose curve.
EXPERIMENTAL READOUT: Potency

Solved entries (count: 6):
CN(C)c1ccc(O)c2c1C[C@H]1C[C@H]3[C@H](N(C)C)C(=O)C(C(N)=O)=C(O)[C@@]3(O)C(=O)C1=C2O	inactive
O=C1NC(=O)C2CC=CCC12 (centres undefined)	inactive
Cc1nc2sccn2c(=O)c1CCN1CCC(=C(c2ccc(F)cc2)c2ccc(F)cc2)CC1	inactive
CCCCCC/C=C/C=O	inactive
O=C(O)CCCl	inactive
Nc1cc(N)cc(C(=O)O)c1	inactive

Lab note: each compound below needs its Potency filled in.
1. O=C(Nc1cccc(Cl)c1)OCC#CCCl
2. CC(C)(C)CC(C)(C)c1ccc(O)c(Cc2ccc(Cl)cc2Cl)c1

[reply]
1. inactive
2. inactive

====

Biological target: Muscarinic acetylcholine receptor M1 (Homo sapiens) (UniProt P11229)
Sequence (P11229 whole entry, looked up): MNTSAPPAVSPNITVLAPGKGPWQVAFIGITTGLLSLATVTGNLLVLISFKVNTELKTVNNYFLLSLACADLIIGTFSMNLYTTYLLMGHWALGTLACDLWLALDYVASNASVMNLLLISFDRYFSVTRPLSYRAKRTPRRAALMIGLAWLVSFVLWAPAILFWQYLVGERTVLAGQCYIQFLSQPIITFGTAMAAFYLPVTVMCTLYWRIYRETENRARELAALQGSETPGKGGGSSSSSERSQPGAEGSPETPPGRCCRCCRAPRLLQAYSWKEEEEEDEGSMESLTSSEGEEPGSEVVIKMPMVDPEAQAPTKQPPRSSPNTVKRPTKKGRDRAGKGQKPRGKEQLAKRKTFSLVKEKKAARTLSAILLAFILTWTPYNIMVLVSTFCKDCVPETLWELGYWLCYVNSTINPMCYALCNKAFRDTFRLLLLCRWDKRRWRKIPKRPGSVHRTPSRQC
Assay: Cholinergic receptor muscarinic 1 (CHRM1) small molecule antagonists, cell-based qHTS assay (AID 1963588); further: nearly all actives have a fitted effect of over 40% in size
Conditions: CHRM1-CHO antagonist mode, calcium flux fluorescence; series mostly up to 61.5 µM
Results filed as inconclusive are left out. The source made the active and inactive calls. Calls come from the whole dose curve.
Choose one outcome from this list and give only that: t = active, f = inactive

Study these solved cases before continuing.
COc1ccc(COC=O)cc1	f
CCCCOC(=O)CCC(C)=O	f
O=C(Oc1ccccc1)Oc1ccccc1	f
O=C1Cc2cc(CCN3CCN(c4nsc5ccccc45)CC3)c(Cl)cc2N1	t

[ask] # fetch the recorded call for O=C(CS)OCCOC(=O)CS here
[reply] f

====

Biological target: 5-hydroxytryptamine receptor 2A (Homo sapiens) (UniProt P28223)
Sequence (P28223 whole entry, looked up): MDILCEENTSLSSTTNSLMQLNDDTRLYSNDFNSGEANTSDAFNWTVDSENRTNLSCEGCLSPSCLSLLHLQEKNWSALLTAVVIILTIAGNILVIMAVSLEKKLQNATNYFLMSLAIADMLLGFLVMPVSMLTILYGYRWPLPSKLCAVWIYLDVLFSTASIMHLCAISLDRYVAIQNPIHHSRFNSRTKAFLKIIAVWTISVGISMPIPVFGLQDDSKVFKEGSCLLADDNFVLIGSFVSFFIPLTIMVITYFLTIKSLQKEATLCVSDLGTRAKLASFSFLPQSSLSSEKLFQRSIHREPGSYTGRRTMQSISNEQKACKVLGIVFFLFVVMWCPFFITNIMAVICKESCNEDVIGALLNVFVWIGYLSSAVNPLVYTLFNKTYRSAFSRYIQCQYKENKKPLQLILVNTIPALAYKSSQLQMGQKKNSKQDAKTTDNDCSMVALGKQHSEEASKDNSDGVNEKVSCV
Assay: 5-hydroxytryptamine receptor 2A (HTR2A) small molecule antagonists, cell-based qHTS assay (AID 1963586); further: on the % scale 0 is the no-effect control and ±100 the full control effect; nearly all actives have a fitted effect of over 45% in size
Details: HTR2A-CHO cells, DOI-induced calcium flux, fluorescence; series mostly up to 61.5 µM
Records with an inconclusive call do not appear. Activity calls are given as the source filed them. Calls follow the shape of the full dose curve.
Choose one outcome from this list and give only that: active, inactive

Study these solved cases before continuing.
CN(C)CCCO[C@@H]1[C@H]2OC(C)(C)O[C@H]2O[C@@H]1C(O)CO (stereo partly specified)	inactive
O=C(NN1CCCC1)NS(=O)(=O)c1ccc(Cl)cc1	inactive
BrCCOc1ccccc1	inactive

Now let's try a different one.
[ask] # fetch the recorded call for C=CC(=O)OCC(C)OCC(C)OCC(C)OC(=O)C=C (stereo unspecified) here
[reply] inactive

====

Assay: p53 small molecule agonists, cell-based qHTS assay with human liver microsomes: qHTS cell viability counter screen (AID 1963579); further: nearly all actives have a fitted effect of over 45% in size
Conditions: p53RE-bla HCT-116 viability, ATP luminescence, 16 h, HLM; series mostly up to 66 µM
Results filed as inconclusive are left out. Activity calls are given as the source filed them. Calls come from the whole dose curve.
Choose one outcome from this list and give only that: t = active, f = inactive

NCCCOCCOCCOCCCN	f
Cc1ccc2ccc(Cl)cc2n1	f

Now let's try a different one.
[ask] # fetch the recorded call for O=C1C=CC(=O)N1c1ccccc1 here
[reply] t

====

Biological target: Muscarinic acetylcholine receptor M1 (Homo sapiens)
Assay: Cholinergic receptor muscarinic 1 (CHRM1) small molecule antagonists, cell-based qHTS assay (AID 1963588); further: nearly all actives have a fitted effect of over 40% in size
Settings: CHRM1-CHO antagonist mode, calcium flux fluorescence; series mostly up to 61.5 µM
Inconclusive results are not listed. Active and inactive are the calls of the source. Calls come from the whole dose curve.
Choose one outcome from this list and give only that: active, inactive

Study these solved cases before continuing.
CCCCC(CC)COC(=O)c1ccccc1 (centres undefined)	inactive
CCCCCCC#CC(=O)OC	inactive
COc1nc(N)nc2c1ncn2[C@@H]1O[C@H](CO)[C@@H](O)[C@@H]1O	inactive
O=C(O)C(=O)Cc1ccccc1	inactive
Cc1ccc(C(N)=O)cc1N	inactive

Now let's try a different one.
[ask] # fetch the recorded call for C[Si](C)(C)C here
[reply] inactive

====

Molecular target: 5-hydroxytryptamine receptor 2A (Homo sapiens)
Experiment: 5-hydroxytryptamine receptor 2A (HTR2A) small molecule agonists, cell-based qHTS assay (AID 1963587); further: nearly all actives have a fitted effect of over 30% in size
Conditions: HTR2A-CHO cells, calcium flux fluorescence, agonist mode; series mostly up to 76.8 µM
Records with an inconclusive call do not appear. Active and inactive are the calls of the source. Calls come from the whole dose curve.
Choose one outcome from this list and give only that: t = active, f = inactive

NNC(=O)CCCCC(=O)NN	f

[ask] # fetch the recorded call for O=C(/C=C/c1ccccc1)NCCO here
[reply] t

[ask] # fetch the recorded call for Cc1cccc(Nc2ccccc2)c1 here
[reply] f

[ask] # fetch the recorded call for Oc1ccc(C2(c3ccc(O)c(C4CCCCC4)c3)CCCCC2)cc1C1CCCCC1 here
[reply] f

====

Biological target: Muscarinic acetylcholine receptor M1 (Homo sapiens) (UniProt P11229)
Assay: Cholinergic receptor muscarinic 1 (CHRM1) small molecule agonists, cell-based qHTS assay (AID 1963589); further: on the % scale 0 is the no-effect control and ±100 the full control effect; nearly all actives have a fitted effect of over 35% in size
Conditions: CHRM1-CHO cells, agonist mode, calcium flux fluorescence; series mostly up to 76.8 µM
The source made the active and inactive calls. The call rests on the fitted dose curve.
EXPERIMENTAL READOUT: activation

CC(=O)NC1(c2cccc(F)c2)CCN(CC[C@@]2(c3ccc(Cl)c(Cl)c3)CN(c3ccccc3)C(=O)CO2)CC1	inactive
O=C(O)Cn1cnnn1	inactive
CCCCCCOc1ccc(O)cc1	inactive
O=C(Cl)c1ccc(Cl)cc1Cl	inactive
CCc1cc(C2=C(C(=O)O)N(c3ccccc3C(F)(F)F)S(=O)(=O)c3ccccc32)cc2c1OCO2	inactive

Lab note: each compound below needs its activation filled in.
1. CC(C)(C)CCCCCCOC(=O)c1ccccc1C(=O)OCCCCCCC(C)(C)C
2. Cc1cc(O)c(C(C)C)cc1Cl

[reply]
1. inactive
2. inactive

Lab note: each compound below needs its activation filled in.
1. CCOc1nc2cccc(C(=O)OC(C)OC(=O)OC3CCCCC3)c2n1Cc1ccc(-c2ccccc2-c2nn[nH]n2)cc1 (stereo not given)
2. O=C(O)CNC(=O)CNC(=O)CNC(=O)CSC(=O)c1ccccc1
3. C=CCOC(=O)CCC1CCCCC1
4. COC(C(=O)O)c1ccccc1 (stereo not given)
5. C[C@H]1c2cccc(O)c2C(O)=C2C(=O)[C@]3(O)C(O)=C(C(N)=O)C(=O)[C@@H](N(C)C)[C@@H]3[C@@H](O)[C@@H]21
6. CC(C)CCCCCCOC(=O)C1CCCCC1C(=O)OCCCCCCC(C)C (stereo not given)
7. COc1cc(Cc2cnc(N)nc2N)cc(OC)c1OC

[reply]
inactive
inactive
inactive
inactive
inactive
inactive
inactive

====

Assay: cAMP Responsive Elements (CRE) small molecule agonists, cell-based qHTS assay (AID 1963590); further: on the % scale 0 is the no-effect control and ±100 the full control effect
Conditions: CRE-bla HEK293T, beta-lactamase FRET ratio, 3 h; series mostly up to 92.4 µM
Results filed as inconclusive are left out. Active and inactive are the calls of the source. Calls come from the whole dose curve.
EXPERIMENTAL READOUT: activation

Solved entries (count: 4):
CC(CSC(=O)c1ccccc1)C(=O)N1C[C@@H](Sc2ccccc2)C[C@H]1C(=O)O (stereo not given in full)	-1.82% [at 19 µM] (inactive)
NC(CSCC(=O)O)C(=O)O (stereo not given)	inactive
CCOc1ccc2nc(N)sc2c1	inactive
Nc1nnc(-c2ccc([N+](=O)[O-])o2)o1	inactive

We now examine a further molecule.
[ask] Would you kindly share the measured activation for NC(N)=N/N=C/c1c(Cl)cccc1Cl ?
[reply] inactive

====

Target: Muscarinic acetylcholine receptor M1 (Homo sapiens)
Assay: Cholinergic receptor muscarinic 1 (CHRM1) small molecule agonists, cell-based qHTS assay (AID 1963589); further: on the % scale 0 is the no-effect control and ±100 the full control effect; nearly all actives have a fitted effect of over 35% in size
Details: CHRM1-CHO cells, agonist mode, calcium flux fluorescence; series mostly up to 76.8 µM
Activity calls are given as the source filed them. Calls follow the shape of the full dose curve.
EXPERIMENTAL READOUT: activation

Solved entries (count: 5):
CCCCNC(=O)NCCCC	inactive
COC(=O)c1ccc(C(=O)OC)c(C(=O)OC)c1	inactive
C[C@@H]1CC[C@H]2C(C)(C)[C@H]3C[C@@]12CC[C@@]3(C)O	inactive
CC(C)=CCCC(C)CCOC=O (stereo unspecified)	inactive
CO/N=C1\CN(c2nc3c(cc2F)c(=O)c(C(=O)O)cn3C2CC2)CC1CN (stereo unspecified)	inactive

[ask] Would you kindly share the measured activation for CCOC(=O)OC(C)OC(=O)[C@@H]1N2C(=O)[C@@H](NC(=O)[C@H](N)c3ccccc3)[C@H]2SC1(C)C (stereo partly specified) ?
[reply] inactive
